Tested on: MINK
Construct: gene MINK1
Conditions: concentration: 1 μM, replicates: in singlicate; n = 1;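 further: KINOMEscan kinase panel screen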
# if value of %Inh reaches 5%, tag YES; if it stays below, tag NO

{"molecule": "[2H]C([2H])(c1cccc(C(F)(F)F)c1C)n1ccn2c(=O)nc(N3CCOCC3)cc12 [GSK2336394]", "qualitative.label": "NO"}
{"molecule": "Cc1ccc(C(=O)NCC(N)=O)cc1-n1c(C)cc(OCc2ccc(F)cc2F)c(Br)c1=O", "qualitative.label": "NO"}
{"molecule": "Fc1ccc(-c2nn3c(OCC(F)(F)F)cccc3c2-c2ccncc2)cc1 [GW514784]", "qualitative.label": "YES"}
{"molecule": "COc1ccc(S(=O)(=O)NC2CCN(c3cc(C)nc(Nc4cccc(C#N)c4)n3)CC2)cc1.O=C(O)C(F)(F)F [GSK1653539]", "qualitative.label": "NO"}
{"molecule": "CNc1ncnc2[nH]ncc12 [SKF-18355]", "qualitative.label": "YES"}
{"molecule": "Cc1cccc(-c2nc(-c3ccc(S(C)(=O)=O)cc3)sc2-c2ccncc2)c1", "qualitative.label": "YES"}
{"molecule": "Cl.Nc1ncnc2occ(-c3ccc(NC(=O)Nc4cc(C(F)(F)F)ccc4F)cc3)c12 [SB-707548]", "qualitative.label": "YES"}
{"molecule": "O=C(NCCNc1ccnc(Nc2ccc(F)cc2)n1)c1cc2ccccc2s1 [GSK1379874]", "qualitative.label": "YES"}
{"molecule": "O=C(Nc1cccc(-c2nn3ncccc3c2-c2ccnc(Nc3cccc(C(F)(F)F)c3)n2)c1)c1c(F)cccc1F [GSK299495]", "qualitative.label": "NO"}
{"molecule": "NS(=O)(=O)c1cccc(-c2ccc3nccc(-c4cccc(S(N)(=O)=O)c4)c3c2)c1 [GW867253]", "qualitative.label": "YES"}
{"molecule": "Cc1cccc(-c2nc(Nc3ccc4ncsc4c3)c3ccccc3n2)n1 [GW867588]", "qualitative.label": "NO"}
{"molecule": "Nc1nccc(-c2c(-c3ccc(F)cc3)ncn2C2CCN(CC(F)(F)F)CC2)n1 [SB-236560]", "qualitative.label": "YES"}
{"molecule": "COc1cc2ncn(-c3cc(OCc4sccc4Cl)c(C(N)=O)s3)c2cc1OC [GSK448459]", "qualitative.label": "YES"}
{"molecule": "O=c1cc(N2CCOCC2)nc2n(Cc3cccc4ccccc34)ccn12 [GSK2333389]", "qualitative.label": "NO"}
{"molecule": "Cc1c(Cn2c(C)nn3c(=O)cc(N4CCOC(C)C4)nc23)cccc1C(F)(F)F (stereo not drawn) [GSK2344444]", "qualitative.label": "NO"}
{"molecule": "NS(=O)(=O)c1cccc(-c2ccc3ncc(N4CCOCC4)nc3c2)c1 [GSK1535721]", "qualitative.label": "YES"}
{"molecule": "N#Cc1c(N2CCOCC2)sc(-c2ccn[nH]2)c1-c1ccc(Cl)cc1", "qualitative.label": "YES"}

---

Tested on: FGFR3
Details: concentration: 1 μM, replicates: in singlicate; n = 1
# key: entry, value: %Inh
observable: %Inh (%)

{"molecule": "CCCCCc1nc2c(N)ncnc2n1CCCCC", "assay.value": 0}
{"molecule": "Cc1nnc(-c2ccc3ncc(-c4ccc(S(C)=O)cc4)n3c2)o1 (stereo not drawn)", "assay.value": 0}
{"molecule": "O=c1cc(N2CCOCC2)nc2n(Cc3cccc(Cl)c3Cl)c(C3CC3)nn12", "assay.value": 0}
{"molecule": "CC(=O)Nc1ccc(COc2ccc(Nc3ccnc4cc(-c5ccccn5)ccc34)cc2)cc1.Cl", "assay.value": 14}
{"molecule": "O=C(NCCCN1CCOCC1)c1cccc(Nc2nccc(Nc3ccc(Oc4ccccc4)cc3)n2)c1", "assay.value": 30}
{"molecule": "N#Cc1ccc(-c2cc(-c3c[nH]nc3-c3ccccn3)ccn2)cc1", "assay.value": 0}
{"molecule": "Cc1c(Cn2c(C)nn3c(=O)cc(N4CCOC(C)C4)nc23)cccc1C(F)(F)F (stereo not drawn)", "assay.value": 4}
{"molecule": "NS(=O)(=O)c1cccc(-c2ccc3ncc(N4CCOCC4)nc3c2)c1", "assay.value": 22}
{"molecule": "O=c1cc(N2CCOCC2)nc2n(Cc3cccc(C(F)(F)F)c3)ccn12", "assay.value": 19}
{"molecule": "CN(C1=C(c2ccccc2)C(=O)NC1=O)c1ccccc1", "assay.value": 24}
{"molecule": "[2H]C([2H])(c1cccc(C(F)(F)F)c1C)n1ccn2c(=O)nc(N3CCOCC3)cc12", "assay.value": 14}
{"molecule": "C[C@@H](Oc1cc(-n2cnc3ccc(NC(=O)NC(C)(C)C)cc32)sc1C(N)=O)c1ccccc1Cl", "assay.value": 30}
{"molecule": "Cc1ccc(C(=O)NCC(N)=O)cc1-n1c(C)cc(OCc2ccc(F)cc2F)c(Br)c1=O", "assay.value": 21}
{"molecule": "NS(=O)(=O)c1cccc(-c2ccc3nccc(-c4cccc(S(N)(=O)=O)c4)c3c2)c1", "assay.value": 0}
{"molecule": "COCCNC(=O)c1ccc(-c2cc(C(=O)NC3CC3)cc(F)c2C)cc1", "assay.value": 7}
{"molecule": "Cl.Nc1ncnc2occ(-c3ccc(NC(=O)Nc4cc(C(F)(F)F)ccc4F)cc3)c12", "assay.value": 63}
{"molecule": "CN(C(=O)c1ccc(-c2cc(-c3c[nH]nc3-c3ccccn3)ccn2)cc1)C1CCOCC1", "assay.value": 0}
{"molecule": "CC(C)(C)n1cnc2c(N)ncnc21", "assay.value": 0}

---

# key: entry, value: %Inh
Test system: MAP4K2
Conditions: concentration: 1 μM, replicates: in singlicate; n = 1
observable: %Inh (%)

{"molecule": "COc1cc2c(cc1OC[C@@H](O)CO)ncc1c3ccc(C#N)cc3[nH]c21", "measurement.unit": "%", "assay.value": 17}
{"molecule": "COC(=O)Nc1nc2cc(Oc3ccc(NC(=O)Nc4cc(F)ccc4F)cc3)ccc2[nH]1.Cl", "measurement.unit": "%", "assay.value": 0}
{"molecule": "Cc1c2ccc(N(C)c3ccnc(Nc4cccc(S(N)(=O)=O)c4)n3)cc2nn1Cc1ccccc1.Cl.Cl", "measurement.unit": "%", "assay.value": 0}
{"molecule": "O=C(NCCNc1ccnc(Nc2ccc(F)cc2)n1)c1cc2ccccc2s1", "measurement.unit": "%", "assay.value": 0}
{"molecule": "COc1cc(Nc2nccc(N3CCC(NC(=O)c4cccc(NC(C)=O)c4)C3)n2)cc(OC)c1OC (centres unmarked)", "measurement.unit": "%", "assay.value": 0}
{"molecule": "CCc1nc(-c2cccc(C)c2)c(-c2ccnc(NCc3ccccc3)c2)s1", "measurement.unit": "%", "assay.value": 3}
{"molecule": "CC(=O)Nc1ccc(COc2ccc(Nc3ccnc4cc(-c5ccccn5)ccc34)cc2)cc1.Cl", "measurement.unit": "%", "assay.value": 0}
{"molecule": "N#Cc1ccc(-c2cc(-c3c[nH]nc3-c3ccccn3)ccn2)cc1", "measurement.unit": "%", "assay.value": 0}

---

# key: entry, value: %Inh
System: PAK6
Settings: concentration: 1 μM, replicates: in singlicate; n = 1

{"compound": "O=C(Nc1n[nH]c2cc(-c3cccc(F)c3)ccc12)C1CC1", "%Inh [%]": 0}
{"compound": "O=C1Cc2cc(Nc3nc(NCc4cccc(S(=O)(=O)C(F)(F)F)c4)ncc3C(F)(F)F)ccc2N1", "%Inh [%]": 0}
{"compound": "CNc1ncnc2[nH]ncc12", "%Inh [%]": 0}
{"compound": "Cc1cn2c(=O)cc(N3CCOCC3)nc2n1Cc1cccc(Cl)c1Cl", "%Inh [%]": 2}
{"compound": "Fc1ccc(-c2ncn(CCCN3CCOCC3)c2-c2ccccn2)cc1", "%Inh [%]": 8}
{"compound": "COc1cc2c(cc1OCCN1CCN(C)CC1)ncc1c3ccc(C#N)cc3[nH]c21", "%Inh [%]": 18}
{"compound": "NS(=O)(=O)CCc1cccc(Nc2nccc(-c3c(-c4cccc(NC(=O)c5c(F)cccc5F)c4)nn4ccccc34)n2)c1", "%Inh [%]": 16}
{"compound": "O=c1cc(N2CCOCC2)nc2n(Cc3cccc(F)c3)ccn12", "%Inh [%]": 0}
{"compound": "COc1cc(Nc2nccc(N3CCC(NC(=O)c4cccc(NC(C)=O)c4)C3)n2)cc(OC)c1OC (stereo not drawn)", "%Inh [%]": 0}

---

Test system: DRAK2
Construct: gene STK17B
Details: concentration: 1 μM, replicates: in singlicate; n = 1

{"molecule": "COc1ccc(Nc2nccc(N3CCC(NC(=O)Nc4cc(C)ccc4C)C3)n2)cc1 (stereo not drawn) [GSK1379741]", "measurement.unit": "%", "%Inh": 0}
{"molecule": "COc1ccc(Nc2nccc(N3CCC(NC(=O)Nc4cccc(C(C)=O)c4)C3)n2)cc1 (stereo not drawn) [GSK1379731]", "measurement.unit": "%", "%Inh": 0}
{"molecule": "CCc1ccnc(/C=C/c2n[nH]c3cc(Sc4ccccc4C(=O)NC)ccc23)c1", "measurement.unit": "%", "%Inh": 0}
{"molecule": "CC(C)(CN)c1nc(-c2ccc(Cl)c(O)c2)c(-c2ccncc2)[nH]1.O=C(O)C(F)(F)F [SB-477794]", "measurement.unit": "%", "%Inh": 0}
{"molecule": "Cn1ccc2ncnc(Oc3ccc(NC(=O)Nc4ccncc4)c(Cl)c3)c21", "measurement.unit": "%", "%Inh": 0}
{"molecule": "CC(C)(C)n1cnc2c(N)ncnc21 [SKF-97359]", "measurement.unit": "%", "%Inh": 6}
{"molecule": "COc1ccc(Nc2ncc(C#N)c(Nc3ccccc3C(N)=O)n2)cc1N1CCN(C)CC1.Cl [GSK1558669]", "measurement.unit": "%", "%Inh": 83}
{"molecule": "Cc1cn2c(=O)cc(N3CCOCC3)nc2n1Cc1cccc(Cl)c1Cl [GSK2334006]", "measurement.unit": "%", "%Inh": 12}
{"molecule": "O=C(NCCCN1CCOCC1)c1cccc(Nc2nccc(Nc3ccc(Oc4ccccc4)cc3)n2)c1 [GW663929]", "measurement.unit": "%", "%Inh": 8}
